# ASSAY_PROCEDURE: Blood concentration, oral, rats, suspended in CMC aqueous solution (Example 17)
# Assay type: in vivo, Male Wistar rats
# EXPERIMENTAL_CONDITIONS: blood, 1 hr., 50 mg/kg oral, rat, read-out: Blood Concentration of the Compound
READOUT: concentration at 1 h (ng/mL)
Give just the number in ng/mL; leave the unit off.

Would you kindly share the measured concentration at 1 h for CO[C@@]1(NC(=O)CSc2nc(C[C@H](N)C(=O)O)c[nH]2)C(=O)N2C(C(=O)O)=C(CSc3nnnn3C)CS[C@@H]21 [Example 13] ?
3100

Would you kindly share the measured concentration at 1 h for CO[C@@]1(NC(=O)CSc2nc(C[C@H](N)C(=O)OCOC(C)=O)c[nH]2)C(=O)N2C(C(=O)OCOC(C)=O)=C(CSc3nnnn3C)CS[C@@H]21 [Example 14] ?
4100

Would you kindly share the measured concentration at 1 h for CO[C@@]1(NC(=O)CSc2nc(C[C@H](N)C(=O)O)c[nH]2)C(=O)N2C(C(=O)O)=C(COC(C)=O)CS[C@@H]21 [Example 12] ?
1700

Would you kindly share the measured concentration at 1 h for Cn1nnnc1SCC1=C(C(=O)O)N2C(=O)[C@@H](NC(=O)CSc3nc(C[C@H](NC=O)C(=O)O)c[nH]3)[C@H]2SC1 [Example 15] ?
2700
